system: LOX IMVI melanoma; experiment: NCI-60 one-dose screen, 48 h; conditions: 10 µM unless noted
The panel holds about 83,000 compounds, 20% with a hit somewhere; the sample as a whole holds those more often. Active and inactive are the calls of the source. The calls were made as follows: active = growth percent below 10; inactive = the rest.
// allowed return values: yes = active, no = inactive

[[record]]
compound = "CCCCCCCCNC(C)C(O)c1ccc(SC(C)C)cc1 (centres undefined)"
group = "yes"

[[record]]
compound = "COc1ccc(-c2nnc(SCC(=O)Nc3ccc(C(=O)/C=C/c4ccc(Cl)cc4)cc3)n2-c2ccccc2)cc1"
group = "no"

[[record]]
compound = "CCc1oc2ccccc2c1C(=O)c1cc(I)c(O)c(I)c1"
group = "no"

[[record]]
compound = "CCOc1cccc(/C=N/NC(=O)Cc2ccc(Nc3ccnc(C(F)(F)F)c3)cc2)c1O"
group = "yes"

[[record]]
compound = "CCCCCCCCCCCCCCCC1=NCC[N+]1(CCO)CCO"
group = "yes"

[[record]]
compound = "C=CCn1c(SCC(=O)Nc2ccc(C(=O)/C=C/c3ccccc3)cc2)nnc1-c1ccc(OC)c(OC)c1"
group = "no"

[[record]]
compound = "COc1cc(Cn2c(-c3ccccc3)cc3c2-c2oncc2CC3)cc(OC)c1OC"
group = "no"

[[record]]
compound = "CN(C)c1ccc(Nc2c3ccccc3nc3ccccc23)cc1"
group = "yes"


Please examine the following record next.
// return assay outcome for Oc1ccc(Cl)cc1-c1cc(-c2ccccc2Cl)[nH]n1
no
